- protocol summary: Primary qHTS for delayed death inhibitors of the malarial parasite plastid, 48 hour incubation
- experimental conditions: P. falciparum luciferase growth in erythrocytes; series mostly up to 28.7 µM
About 18,000 (5.8%) of roughly 310,000 compounds were called active. Inconclusive results (about 22%) are left out. Calls follow the shape of the dose curve; as a rule, active = well fitted inhibition curve with a large enough effect; inconclusive = small, poorly fitted or top-dose-only effect, or another doubt; inactive = no such curve, though single readings can be large or run the other way. For the sample, actives were picked, then their nearest neighbours and some compounds at random.
Choose one outcome from this list and give only that: yes (active), no (inactive)

## Task Each compound tested received a call. Report the one for COc1cccc(S(=O)(=O)NCc2ccc(C(=O)NCc3ccccn3)cc2)c1 .
## Result no

## Task Each compound tested received a call. Report the one for COc1cccc(-c2coc3cc4oc(=O)c(CC(=O)O)c(C)c4cc23)c1 .
## Result no

## Task Each compound tested received a call. Report the one for COc1cccc(NC(=O)C/C(C)=N/NC(=O)C2CCCCC2)c1 .
## Result no

## Task Each compound tested received a call. Report the one for O=C(NNC(=O)c1ccc(-n2cncn2)c([N+](=O)[O-])c1)c1ccccc1 .
## Result no

## Task Each compound tested received a call. Report the one for COc1cccc(N2CCN(c3ccc4nnc(CCC(=O)N5CCN(C)CC5)n4n3)CC2)c1 .
## Result no

## Task Each compound tested received a call. Report the one for COc1cccc(C(=O)N2CCC(n3nccc3NC(=O)C3CCOC3)CC2)c1 (stereo not drawn) .
## Result no

## Task Each compound tested received a call. Report the one for COc1ccc(C(CCNCc2ccccc2F)c2ccc(F)cc2)cc1 (stereo not drawn) .
## Result yes

## Task Each compound tested received a call. Report the one for O=C(CSc1nnc2scc(-c3ccc(F)cc3)n12)NCc1ccco1 .
## Result no

## Task Each compound tested received a call. Report the one for COc1ccc(Oc2cn[nH]c2-c2ccc(OC)cc2O)cc1 .
## Result yes

## Task Each compound tested received a call. Report the one for COc1ccc(C2CC(c3ccccc3)=NN2C(=O)c2ccc(Cl)c([N+](=O)[O-])c2)cc1 (stereo not drawn) .
## Result no

## Task Each compound tested received a call. Report the one for Cn1c(Cc2cccs2)nnc1SCC(=O)Nc1ccccc1 .
## Result no

## Task Each compound tested received a call. Report the one for COc1ccc(Cc2cc(-c3ccc(F)cc3)n[nH]c2=O)cc1 .
## Result no

## Task Each compound tested received a call. Report the one for COc1ccc(N2CCC(CNC(=S)Nc3c(C)cccc3C)C2)cc1 (stereo not drawn) .
## Result yes

## Task Each compound tested received a call. Report the one for O=C(Nc1ccc(NC(=O)c2ccccc2F)cc1)c1ccccc1F .
## Result no

## Task Each compound tested received a call. Report the one for COc1ccc(C(=O)NC(=S)NC2CCCCC2)cc1 .
## Result no

## Task Each compound tested received a call. Report the one for CCCOc1cccc(C(=O)NCCCNC(=O)c2cccnc2)c1 .
## Result no

## Task Each compound tested received a call. Report the one for CCOc1ccccc1Oc1cn[nH]c1-c1ccc(OC)cc1O .
## Result yes

## Task Each compound tested received a call. Report the one for COc1cc(C(=S)NC2CCCCC2)ccc1O .
## Result yes

## Task Each compound tested received a call. Report the one for COCCCn1c(SCC(=O)Nc2ccccc2)nnc1-c1ccncc1 .
## Result no

## Task Each compound tested received a call. Report the one for COc1ccccc1NC(=O)N1CCCC1C(=O)NCc1cccs1 (stereo not drawn) .
## Result no

## Task Each compound tested received a call. Report the one for COc1ccc(S(=O)(=O)Nc2cc(C)on2)cc1NC(C)=O .
## Result no

## Task Each compound tested received a call. Report the one for COc1ccc(N2CCN(C(=O)c3cccs3)CC2)cc1 .
## Result no

## Task Each compound tested received a call. Report the one for CC(=O)N(C)c1ccc(NC(=O)Nc2cccc3ccccc23)cc1 .
## Result no

## Task Each compound tested received a call. Report the one for O=C(CCN1C(=O)[C@H]2CC=CC[C@H]2C1=O)NCc1nc(-c2ccccc2)no1 .
## Result no

## Task Each compound tested received a call. Report the one for CC(C)c1ccc(S(=O)(=O)N2CCC3(CC2)OCCO3)cc1 .
## Result no

## Task Each compound tested received a call. Report the one for COc1ccc(-c2[nH]ncc2/C=N/NC(=O)c2cc(Br)ccc2O)c(OC)c1 .
## Result no

## Task Each compound tested received a call. Report the one for Cc1cc(C)c(C#N)c(SCC(=O)N(CC(C)C)C2CCS(=O)(=O)C2)n1 (stereo not drawn) .
## Result no

## Task Each compound tested received a call. Report the one for COc1ccc(CNC(=O)COC(=O)c2c(C)nn(-c3ccccc3)c2C)cc1OC .
## Result no

## Task Each compound tested received a call. Report the one for O=C(Nc1ccccc1F)c1ccccc1-c1ccccc1 .
## Result no

## Task Each compound tested received a call. Report the one for CCN(CCn1cccn1)Cc1cn[nH]c1-c1ccc(OC)cc1F .
## Result no

## Task Each compound tested received a call. Report the one for Cc1ccc(N(Cc2ccccc2O)C(=O)c2ccccc2F)cc1 .
## Result yes

## Task Each compound tested received a call. Report the one for COC(=O)c1cc(S(=O)(=O)Nc2ccc(C)c(F)c2)c[nH]1 .
## Result no

## Task Each compound tested received a call. Report the one for Clc1ccc(C(Cn2ccnc2)OCc2ccsc2Cl)c(Cl)c1 (stereo not drawn) .
## Result yes
